Test: in vivo
Conditions: Sprague-Dawley, rat, iv, 1 mg/kg
value.type: clearance (mL/min/kg)
Numeric only. Scale: mL/min/kg

Input line: If you can, please state the reported clearance value of `CCc1ccc(O[C@H](C)CCOc2ccc(CCC(=O)O)c(CC)c2)c(-c2ccccn2)c1` .
Output line: 1.9

====

Target: Peroxisome proliferator-activated receptor delta (Homo sapiens, UniProt Q03181)
Sequence (Q03181 whole entry): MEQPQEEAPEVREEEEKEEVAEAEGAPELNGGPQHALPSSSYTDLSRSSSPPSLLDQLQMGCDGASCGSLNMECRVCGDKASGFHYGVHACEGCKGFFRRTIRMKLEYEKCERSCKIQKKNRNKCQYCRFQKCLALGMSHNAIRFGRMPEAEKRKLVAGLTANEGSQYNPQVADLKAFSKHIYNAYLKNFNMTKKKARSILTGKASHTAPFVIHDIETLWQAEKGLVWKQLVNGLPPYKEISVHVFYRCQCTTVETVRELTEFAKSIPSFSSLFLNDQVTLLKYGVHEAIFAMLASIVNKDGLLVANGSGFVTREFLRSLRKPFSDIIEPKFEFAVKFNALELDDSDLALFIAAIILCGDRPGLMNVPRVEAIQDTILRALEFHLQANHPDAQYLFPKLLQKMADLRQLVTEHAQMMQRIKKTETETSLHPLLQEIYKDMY
value.type: EC50 (nM)
Numeric only. Scale: nM

Illustrative cases are given below, each with its answer.
{"compound.structure.string": "Cc1cc(OCC[C@@H](C)Oc2ccc(C(F)(F)F)cc2-c2ccccn2)ccc1CCC(=O)O", "value.unit": "nM", "endpoint.result": 6}
{"compound.structure.string": "CCc1cc(OCC[C@@H](C)Oc2ccc(C(F)(F)F)cc2-c2ccccn2)ccc1CCC(=O)O", "value.unit": "nM", "endpoint.result": 6}

Input line: If you can, please state the reported EC50 value of `CCc1ccc(O[C@H](C)CCOc2ccc(CCC(=O)O)c(CC)c2)c(-c2ccccn2)c1` .
Output line: 7
